All values here come from patent US20040133008A1.

test system: Apo B secretion; test: Measurement of Inhibition of Apo B Secretion; type: cell-based; conditions: Homo sapiens; HepG2 cells, 10^−8 M test compound, 15-hour incubation, Apo B in media by ELISA, 0.1% DMSO treated cells as controls

molecule	assayed-target	unit-string	inhibition at 0.01 µM
Cc1ccc(C(=O)Nc2ccc(NC(=O)C(C)c3ccccn3)cc2)c(N2CCC(C)CC2)n1 (stereo not shown)	Apo B secretion	%	76.2
Cc1ccc(C(=O)Nc2ccc(NCCn3cccn3)cc2)c(N(C)C)c1	Apo B secretion	%	81.2
CCc1ccc(C(=O)Nc2ccc(NCCn3cccn3)cc2)c(N(C)C)c1	Apo B secretion	%	75.7
CC1CCN(c2ncccc2C(=O)Nc2ccc(NCCc3ccccn3)cc2)CC1	Apo B secretion	%	86.3
Cc1ccc(C(=O)Nc2ccc(NC(=O)Cn3cccn3)cc2)c(N2CCC(C)CC2)n1	Apo B secretion	%	71.5
Cc1ccc(C(=O)Nc2ccc(NCCc3ccccn3)cc2)c(N(C)C)c1	Apo B secretion	%	85.8
CN(C)c1cc(Cl)ccc1C(=O)Nc1ccc(NCCc2cccc(N)n2)cc1	Apo B secretion	%	85.9
